- tgt: E. coli SSB-Cy5-dT15 complex (Escherichia coli)
- Construct: purchased Promega
- Sequence (P0AGE0 2-178, one chain of several): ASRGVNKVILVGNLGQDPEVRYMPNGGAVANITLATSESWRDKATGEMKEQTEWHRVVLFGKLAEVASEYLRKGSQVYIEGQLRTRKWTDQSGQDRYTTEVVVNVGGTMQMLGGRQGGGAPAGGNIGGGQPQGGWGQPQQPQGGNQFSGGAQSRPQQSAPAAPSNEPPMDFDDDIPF
- assay.info: Escherichia coli SSB Cy5-dT15 binding assay (fluorescence polarization)
- stated.conditions: read-out: SSB EC50
# key: entry, value: EC50
measured.metric: EC50 (µM)

>>> df
                                 mol_smiles  measured_metric  censor_symbol  result
0  Cc1ccc2nc(-c3ccc4nc(-c5ccc(NC(=O)c6cc(F)cc(C(F)(F)F)c6)cc5)sc4c3)sc2c1S(=O)(=O)O             EC50              >     100
1  Cc1ccc2nc(-c3ccc4nc(-c5ccc(NC(=O)Nc6ccc(C(F)(F)F)cc6)cc5)sc4c3)sc2c1S(=O)(=O)O.N             EC50              =      15
2  Cc1ccc2nc(-c3ccc(NC(=O)c4ccc(NC(=O)c5ccc(N)cc5)cc4)cc3)sc2c1S(=O)(=O)O.N             EC50              =      17
3  Cc1ccc2nc(-c3ccc4nc(-c5ccc(NCc6ccccc6)cc5)sc4c3)sc2c1S(=O)(=O)O             EC50              =       5
4  Cc1ccc2nc(-c3ccc4nc(-c5ccc(NC(=O)Nc6ccccc6)cc5)sc4c3)sc2c1S(=O)(=O)O.N             EC50              =       6
5  Cc1ccc2nc(-c3ccc(NC(=O)c4ccc(NC(=O)Nc5ccccc5)cc4)cc3)sc2c1S(=O)(=O)O.N             EC50              =      20

###

- tgt: HCV NS3 helicase NS3h_1b(con1) (Hepatitis C virus genotype 1b, UniProt Q9WMX2)
- Construct: truncated C-terminally His-tagged NS3 proteins lacking the N-terminal protease, called NS3h; His-tag (C); made in house
- Sequence (Q9WMX2 1192-1657): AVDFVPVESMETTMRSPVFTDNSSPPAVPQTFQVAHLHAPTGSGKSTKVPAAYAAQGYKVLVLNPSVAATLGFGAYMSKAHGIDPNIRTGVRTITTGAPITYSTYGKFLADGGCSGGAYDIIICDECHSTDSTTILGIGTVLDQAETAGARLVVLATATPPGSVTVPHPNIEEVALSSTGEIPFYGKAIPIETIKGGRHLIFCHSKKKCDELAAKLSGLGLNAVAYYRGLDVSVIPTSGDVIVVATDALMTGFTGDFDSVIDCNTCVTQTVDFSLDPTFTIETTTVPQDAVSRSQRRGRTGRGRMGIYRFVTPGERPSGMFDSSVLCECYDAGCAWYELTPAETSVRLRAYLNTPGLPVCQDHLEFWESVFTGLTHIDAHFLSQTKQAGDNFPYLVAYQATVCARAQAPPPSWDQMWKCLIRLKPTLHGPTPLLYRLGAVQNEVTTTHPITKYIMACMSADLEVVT
- assay.info: MBHA screen of NCI mechanistic set library at 20 μM (percent inhibition, compound interference)
- Assay type: biochemical
- stated.conditions: compounds at 20 μM, MBHA with DNA substrate; assay interference calculated with Equation 2
Non-standard residues stand in square brackets, D forms with d. Residues, ends and D or L forms follow the SMILES beside them. ξ: configuration not given here. *: point of attachment. ξNMe2Val = CC(C)C(C(=O)*)N(C)C; NMeV = CN[CH](C(=O)O)C(C)C; NHBn = c1ccc(CN*)cc1
measured.metric: Int.* (Ratio) (Interference)

compound	unit.descriptor	result
C=C(Cl)C(Cl)(CBr)CCC(Br)C(C)(C)Cl (stereo not shown) [Compound 662825]	Ratio	0.93
COc1ccccc1[S+]([O-])Nc1ccccc1 (stereo not shown) [Compound 676561]	Ratio	0.96
Cl.Cl.Nc1ccc(OCCCc2c(-c3ccccc3)nc(N)[nH]c2=O)cc1 [Compound 100856]	Ratio	0.98
CC(C)C(NC(=O)C(C(C)C)N(C)C)C(=O)N(C)C(C(=O)N1CCCC1C(=O)N1CCCC1C(=O)NCc1ccccc1)C(C)C.Cl (stereo not shown) [Compound 669356] (ξNMe2Val-V[NMeV]PP-NHBn; configuration not given here)	Ratio	1.08
N[C@@H](Cc1ccc2oc3cc(=O)c4ccccc4c-3nc2c1)C(=O)O [Compound 672425]	Ratio	0.89
Cc1c(Cl)cccc1NC(=O)c1cccc([N+](=O)[O-])c1O [Compound 328477]	Ratio	0.96
CC(C)C(C)C=CC(C)C1CCC2C3=CC=C4CC(O)CCC4(C)C3CCC21C (stereo not shown) [Compound 62791]	Ratio	0.93
OC(CN1CCCCC1)c1ccc(/C=C/c2ccc(Cl)cc2)cc1 (stereo not shown) [Compound 26040]	Ratio	0.97
O=C(O)c1ccc(NC(c2ccccc2)c2ccc3cccnc3c2O)cc1 (stereo not shown) [Compound 1011]	Ratio	0.87
C=C(NC(=O)C(=C)NC(=O)c1csc(C2=N[C@@H]3c4csc(n4)C4NC(=O)c5csc(n5)C([C@](C)(O)[C@@H](C)O)NC(=O)[C@H]5CSC(=N5)/C(=C/C)NC(=O)C(C(C)O)NC(=O)c5csc(n5)C3(CC2)NC(=O)[C@H](C)NC(=O)C(=C)NC(=O)C(=C)NC(=O)C(C(C)C)N[C@@H]2C=Cc3c([C@@H](C)O)cc(nc3[C@H]2O)C(=O)OC4C)n1)C(N)=O (stereo partly shown) [Compound 285116]	Ratio	0.90
O=[Se]([O-])[O-].[Na+].[Na+] [Compound 347466]	Ratio	0.89
COc1cc2oc(=O)cc(C)c2cc1[N+](=O)[O-] [Compound 299879]	Ratio	0.94
O=C(Nc1ccc2c(c1)oc(=O)c1ccccc12)C(Cl)Cl [Compound 65937]	Ratio	1.01
COc1cc2cc3c4cc(OC)c(OC)cc4cc[n+]3c(C)c2cc1OC.O=C(O)CS(=O)(=O)[O-] [Compound 154890]	Ratio	0.29
CCN(CC)CCNC(=O)c1nn(-c2ccc(Cl)cc2)c2c1CCc1cc(OC)ccc1-2 [Compound 288010]	Ratio	1.01
COc1ccc(C=CC(=O)Oc2cc(O)cc(O)c2)cc1 [Compound 175296]	Ratio	0.90
CCCCOc1ccc(NC(N)=Nc2ccc(Cl)cc2)cc1 [Compound 78365]	Ratio	0.98
CC(C)CCCC(=O)CCCCCCC(=O)CCN(O)C(=O)C(N)CO.O=S(=O)(O)O (stereo not shown) [Compound 106997]	Ratio	0.96
CC(C)=CC1C(C(=O)O)C1(C)C (stereo not shown) [Compound 11779]	Ratio	0.89

###

- tgt: HCV NS3 helicase NS3h_1b(con1) (Hepatitis C virus genotype 1b)
- Construct: truncated C-terminally His-tagged NS3 proteins lacking the N-terminal protease, called NS3h; His-tag (C); made in house
- assay.info: MBHA screen of NCI mechanistic set library at 20 μM (percent inhibition, compound interference)
- Type: biochemical
- stated.conditions: compounds at 20 μM, MBHA with DNA substrate; assay interference calculated with Equation 2
measured.metric: Int.* (Ratio) (Interference)

compound	measured.metric	result
N#CC1(C#N)C2C=CC(c3coc4cccc2c34)C1(C#N)C#N (stereo not drawn) [Compound 629301]	Int.* (Ratio) (Interference)	0.91 Ratio
CC(C)C[C@H]1C(=O)N2CCC[C@H]2[C@]2(O)O[C@](NC(=O)[C@@H]3C=C4c5cccc6[nH]c(Br)c(c56)C[C@H]4N(C)C3)(C(C)C)C(=O)N12.CS(=O)(=O)O [Compound 169774]	Int.* (Ratio) (Interference)	0.92 Ratio
CCC1CN2CCc3cc(OC)c(OC)cc3C2CC1CC1c2cc(OC)c(OC)cc2CCN1C(=O)C1CCCN1C(=O)OCc1ccccc1 (stereo not drawn) [Compound 103248]	Int.* (Ratio) (Interference)	0.92 Ratio
COc1cc(/C=C/C(=O)CC(=O)/C=C/c2ccc(O)c(OC)c2)ccc1O [Compound 32982]	Int.* (Ratio) (Interference)	0.90 Ratio
CCOC(=O)/C=C/c1c(C)[nH]c(=O)[nH]c1=O [Compound 159935]	Int.* (Ratio) (Interference)	0.89 Ratio
CCNCCCCNCCCCNCCCCNCCCCNCC.Cl [Compound 640506]	Int.* (Ratio) (Interference)	0.91 Ratio

###

- tgt: HCV NS3 helicase NS3h_1b(con1) (Hepatitis C virus genotype 1b, UniProt Q9WMX2)
- Construct: truncated C-terminally His-tagged NS3 proteins lacking the N-terminal protease, called NS3h; His-tag (C); made in house
- assay.info: MBHA screen of NCI mechanistic set library at 20 μM (percent inhibition, compound interference)
- Format: biochemical
- stated.conditions: compounds at 20 μM, MBHA with a DNA substrate; calculated from Equation 1
# key: entry, value: Inh. (%) (Inhibition)
measured.metric: Inh. (%) (Inhibition)

>>> print(df.to_string())
                                    molecule  result
 0  Cc1ccc(S(=O)(=O)SC/C=C/CSS(=O)(=O)c2ccc(C)cc2)cc1    9.2%
 1  S=C(Nc1ccccc1)N(/N=C/C=C/c1ccccc1)c1nnc(-c2ccccc2)c(-c2ccccc2)n1   −3.0%
 2  O=C([O-])c1cc(I)cc(I)c1O.O=C([O-])c1cc(I)cc(I)c1O.[Mn+2]  −27.2%
 3  CCOC(C)C(C=NNC(N)=S)=NNC(N)=S (stereo not shown)   −6.7%
 4  CN(C)C(=S)/N=c1\ss/c(=N\C(=S)N(C)C)n1-c1ccc2c(c1)OCO2  −21.0%
 5  BrCCC[P+](c1ccccc1)(c1ccccc1)c1ccccc1.[Br-]  −31.4%
 6  CC(CN1CC(=O)NC(=O)C1)N1CC(=O)NC(=O)C1 (stereo not shown)   −5.2%
 7  CC(=O)Oc1ccc(C(c2ccc(OC(C)=O)cc2)c2ccccn2)cc1   −4.8%
 8  C[C@]12C=CC(=O)C=C1[C@@H](F)C[C@H]1[C@@H]3CC[C@](O)(C(=O)CO)[C@@]3(C)C[C@H](O)[C@@]12F    9.8%
 9  COC1=C(C)C(=O)C2=C(C1=O)C(CO)N1C(C#N)C3CC4C(C1C2N1CCOC41)N3C (stereo not shown)    7.1%
10  Nc1ncnc2c([C@@H]3O[C@H](CO)[C@@H](O)[C@H]3O)c[nH]c12    7.0%
11      O=C1Nc2ccc(Br)cc2/C1=C\C(=O)c1ccccc1  −28.1%
12  Cc1cccc(C)c1NC(=O)C(=O)C(c1ccccc1Cl)S(=O)(=O)Cc1ccccc1Cl (stereo not shown)    9.1%
13  COc1cc2c(cc1O)N=CC1CCC(O)N1C2=O (stereo not shown)  −26.2%
14  Nc1ncnc2c1nc(Cl)n2[C@@H]1O[C@@H]2COP(=O)(O)O[C@H]2[C@H]1O   −4.0%
15  O=C([O-])c1ccc(Nc2c3ccccc3nc3ccccc23)cc1.[Na+]   −6.4%
16    CC(C)(C)C1CCC2(CC1)CCN(CCCN1CCOCC1)CC2   −5.9%
17  CCOC(=O)C1=C(C)NC(=S)NC1c1ccccc1 (stereo not shown)  −21.3%
18  COc1ccccc1/C=C1\Sc2scc(-c3cccc([N+](=O)[O-])c3)[n+]2C1=O  −21.5%
19           Oc1ccc(/C=N/NC(=S)Nc2cccnc2)nc1  −26.6%
20        Cl.NC(N)=N/N=C(\c1ccc(Cl)cc1)C1CC1   −6.1%
21        CN(C)CCCN1c2ccccc2Sc2ccc3ccccc3c21   −4.0%
22  Cc1cc(O)c(C(C)C)cc1C1(c2cc(C(C)C)c(O)cc2C)OC(=O)c2ccccc21  −22.0%
23  CN(C)c1ccc(/C=C/C(=O)[O-])cc1.CN(C)c1ccc(/C=C/C(=O)[O-])cc1.[Cu+2]  −20.4%
24  OCC1OC(n2cnc3c(SCc4ccccc4)ncnc32)C(O)C1O (stereo not shown)   −6.4%
25  CCCCCCCCCCSCC(CO)NC(=O)/C=C/c1c(C)[nH]c(=O)[nH]c1=O (stereo not shown)   11.0%
26                       O=C1C=Cc2ncccc2C1=O   −6.2%
27           N[C@H](C(=O)O)[C@@H]1CC(Cl)=NO1   10.3%

The measured values listed here are drawn from patent US9464064B2.
